molecules and their reported IC50
- Test system: RKO (RKOp27) human colon adenocarcinoma cells
- protocol: Alamar Blue cell viability assay, anti-proliferative/cytotoxic activity, RKO p27 uninduced
- Type: cell-based
- experimental setup: RKOp27, 72 h, proliferating cells, absence of the inducer Ponasterone A, 72 hours incubation

Can you look up the measured IC50 of CCOCCCNC(=O)N1CCc2c(sc(NC(=O)c3ccccc3)c2C#N)C1 [Compound 100] for me?
≤ 3 µM

Can you look up the measured IC50 of CCOC(=O)N1CCc2c(sc(NC(=O)c3ccc(Cl)cc3)c2C#N)C1 [Compound 47] for me?
≤ 3 µM

Can you look up the measured IC50 of COc1ccc(S(=O)(=O)N2CCc3c(sc(NC(=O)c4ccccc4)c3C#N)C2)cc1 [Compound 79] for me?
≤ 3 µM

Can you look up the measured IC50 of CCCCCCC(=O)N1CCc2c(sc(NC(=O)c3ccccc3)c2C#N)C1 [Compound 6] for me?
≤ 2 µM

Can you look up the measured IC50 of CCNC(=O)N1CCc2c(sc(NC(=O)c3ccccc3)c2C#N)C1 [Compound 98] for me?
≤ 3 µM

* * *

- System: RKO (RKOp27) human colon adenocarcinoma cells
- protocol: Alamar Blue cell viability assay, anti-proliferative/cytotoxic activity, RKO p27 uninduced
- Assay type: cell-based
- experimental setup: RKOp27, 72 h, proliferating cells, absence of the inducer Ponasterone A, 72 hours incubation
compounds and their reported IC50

Here are 5 compounds together with their reported answers.
- mol smiles: "COC(=O)CCCC(=O)N1CCc2c(sc(NC(=O)c3ccccc3)c2C#N)C1"
  IC50: "≤ 3 µM"
- mol smiles: "CCCC(=O)N1CCc2c(sc(NC(=O)c3ccccc3)c2C#N)C1"
  IC50: "≤ 2 µM"
- mol smiles: "N#Cc1c(NC(=O)c2ccccc2)sc2c1CCN(C(=O)OCCN1CCOCC1)C2"
  IC50: "≤ 3 µM"
- mol smiles: "N#Cc1c(NC(=O)c2ccccc2)sc2c1CCN(C(=O)Cc1ccccn1)C2"
  IC50: "≤ 3 µM"
- mol smiles: "COCC(=O)N1CCc2c(sc(NC(=O)c3ccccc3)c2C#N)C1"
  IC50: "≤ 3 µM"

Can you look up the measured IC50 of CC(=O)N1CCc2c(sc(NC(=O)c3ccccc3)c2C#N)C1 for me?
3 µM

Can you look up the measured IC50 of N#Cc1c(NC(=O)c2ccccc2)sc2c1CCN(C(=O)Cc1c[nH]c3ccccc13)C2 for me?
≤ 3 µM

Can you look up the measured IC50 of CC(=O)OCC(=O)N1CCc2c(sc(NC(=O)c3ccccc3)c2C#N)C1 for me?
≤ 3 µM

Can you look up the measured IC50 of CCOC(=O)CC(=O)N1CCc2c(sc(NC(=O)c3ccccc3)c2C#N)C1 for me?
≤ 3 µM

* * *

- Test system: RKO (RKOp27) human colon adenocarcinoma cells
- protocol: Alamar Blue cell viability assay, anti-proliferative/cytotoxic activity, RKO p27 uninduced
- Format: cell-based
- experimental setup: RKOp27, 72 h, proliferating cells, absence of the inducer Ponasterone A, 72 hours incubation
pIC50: −log10 of the molar value.
measure: pIC50

Here are 8 molecules together with their reported answers.
- molecule: "N#Cc1c(NC(=O)c2ccccc2)sc2c1CCN(C(=O)CCc1cccnc1)C2 [Compound 41]"
  measurement target: "RKO (RKOp27) human colon adenocarcinoma cells"
  obs value: "≥ 5.52"
- molecule: "CN(C)C(=O)CCC(=O)N1CCc2c(sc(NC(=O)c3ccccc3)c2C#N)C1 [Compound 83]"
  measurement target: "RKO (RKOp27) human colon adenocarcinoma cells"
  obs value: "≥ 5.52"
- molecule: "CCCOC(=O)N1CCc2c(sc(NC(=O)c3ccccc3)c2C#N)C1 [Compound 64]"
  measurement target: "RKO (RKOp27) human colon adenocarcinoma cells"
  obs value: "≥ 5.52"
- molecule: "CCOC(=O)N1CCc2c(sc(NC(=O)c3ccccc3)c2C#N)C1 [Compound 18]"
  measurement target: "RKO (RKOp27) human colon adenocarcinoma cells"
  obs value: "≥ 5.70"
- molecule: "COCCOCC(=O)N1CCc2c(sc(NC(=O)c3ccccc3)c2C#N)C1 [Compound 40]"
  measurement target: "RKO (RKOp27) human colon adenocarcinoma cells"
  obs value: "≥ 5.52"
- molecule: "CC(=O)OCCCC(=O)N1CCc2c(sc(NC(=O)c3ccccc3)c2C#N)C1 [Compound 86]"
  measurement target: "RKO (RKOp27) human colon adenocarcinoma cells"
  obs value: "≥ 5.52"
- molecule: "N#Cc1c(NC(=O)c2ccccc2)sc2c1CCN(C(=O)OCC(O)CO)C2 (stereo not drawn) [Compound 76]"
  measurement target: "RKO (RKOp27) human colon adenocarcinoma cells"
  obs value: "≥ 5.52"
- molecule: "N#Cc1c(NC(=O)c2ccccc2)sc2c1CCN(C(=O)OCCc1ccccn1)C2 [Compound 68]"
  measurement target: "RKO (RKOp27) human colon adenocarcinoma cells"
  obs value: "≥ 5.52"

Can you look up the measured pIC50 of N#Cc1c(NC(=O)c2ccccc2)sc2c1CCN(C(=O)OCCn1ccnc1)C2 [Compound 95] for me?
≥ 5.52

Can you look up the measured pIC50 of CC(=O)CCC(=O)N1CCc2c(sc(NC(=O)c3ccccc3)c2C#N)C1 [Compound 27] for me?
≥ 5.70

Can you look up the measured pIC50 of N#Cc1c(NC(=O)c2ccccc2)sc2c1CCN(C(=O)OCCCc1ccncc1)C2 [Compound 69] for me?
≥ 5.52

Can you look up the measured pIC50 of CCOC(=O)N1CCc2c(sc(NC(=O)c3cccc(C)c3)c2C#N)C1 [Compound 51] for me?
≥ 5.52

Can you look up the measured pIC50 of CCOC(=O)N1CCc2c(sc(NC(=O)c3ccc([N+](=O)[O-])cc3)c2C#N)C1 [Compound 44] for me?
≥ 5.52

Can you look up the measured pIC50 of N#Cc1c(NC(=O)c2ccccc2)sc2c1CCN(C(=O)CCC(N)=O)C2 [Compound 8] for me?
≥ 5.70

Can you look up the measured pIC50 of N#Cc1c(NC(=O)c2ccccc2)sc2c1CCN(C(=O)CCCn1ccnc1)C2 [Compound 85] for me?
≥ 5.52

Every entry's value here was drawn from patent US7714134B2.
